The origin of these recorded values is the supplement of paper PMC12645437.

# log2 fold change of degron read counts per record follows
# subject-of-test: T1, CRBN, Q96SW2
# T1 chain: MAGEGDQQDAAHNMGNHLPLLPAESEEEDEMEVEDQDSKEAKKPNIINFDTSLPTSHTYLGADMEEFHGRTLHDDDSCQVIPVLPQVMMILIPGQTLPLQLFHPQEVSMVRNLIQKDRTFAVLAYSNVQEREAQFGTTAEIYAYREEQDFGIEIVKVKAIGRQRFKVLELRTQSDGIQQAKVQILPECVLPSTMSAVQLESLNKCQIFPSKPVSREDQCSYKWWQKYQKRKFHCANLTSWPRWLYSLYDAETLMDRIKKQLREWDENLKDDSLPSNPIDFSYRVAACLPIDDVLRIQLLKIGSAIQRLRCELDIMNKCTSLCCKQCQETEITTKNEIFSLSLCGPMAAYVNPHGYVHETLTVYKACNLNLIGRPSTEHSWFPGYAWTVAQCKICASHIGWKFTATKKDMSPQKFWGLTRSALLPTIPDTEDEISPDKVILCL
# test-summary: log2 fold change of degron read counts, EGFP-low vs EGFP+ sorted cells (limma voom), compound-induced degradation; higher = more compound-induced degradation of the degron-EGFP fusion; degrons are variants of IKZF1/3 zinc finger 2; compound dose not given here;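 also: pooled lentiviral library of zinc finger degron-EGFP fusions in mCherry-positive Jurkat cells, FACS-sorted after compound exposure, with degron abundance counted by next-generation sequencing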
# setup-conditions: Jurkat; 18 h; compound: compound 22 (5-morpholino-thalidomide)
The full ranking holds about 8,300 sequences; the median of “log2 fold change of degron read counts, EGFP-low vs EGFP+ sorted cells (limma voom), compound-induced degradation” is about -1.1, and the highest 2% start at about 3.2. This excerpt belongs to a sample that is enriched for the highest values.

| sequence-input | log2 fold change of degron read counts |
| --- | --- |
| FRCEICGHAFTQKGNLLRHIKL [46F_47R_49E_50I_52G_53H_54A_55F_67L_, Q9UKT9] | -2.82 |
| FCCPQCGANFTQKGNLLRHIKL [46F_47C_49P_50Q_52G_53A_54N_55F_67L_, Q9UKT9] | -1.28 |
| LQCNQCGFHCTQKGNLLRHIKL [46L_47Q_49N_50Q_52G_53F_54H_55C_67L_, Q9UKT9] | -2.37 |
| FECNQCGHIFTQKGNLLRHIKL [46F_47E_49N_50Q_52G_53H_54I_55F_67L_, Q9UKT9] | -3.02 |
| FQCEICGHAFTQKGNLLRHIKL [46F_47Q_49E_50I_52G_53H_54A_55F_67L_, Q9UKT9] | -3.01 |
| FWCPQCGATFTQKGNLLRHIKL [46F_47W_49P_50Q_52G_53A_54T_55F_67L_, Q9UKT9] | 1.49 |
| FACEICGRNFTQKGNLLRHIKL [46F_47A_49E_50I_52G_53R_54N_55F_67L_, Q9UKT9] | -1.8 |
